Could you please report measured apparent KD of MS2 coat protein for the items listed next?
# System: MS2 coat protein
# Test method notes: apparent KD of MS2 coat protein, switch OFF state (with FMN for OFF switches, without FMN for ON switches); designed switch direction (-1 OFF switch, 1 ON switch): 1; higher = weaker reporter binding
# Assay conditions: FMN input: 0 or 200 uM; Eterna round: R93 (includes R88 designs)
Numeric answer only, unit µM assumed.

Task: Recorded apparent KD of MS2 coat protein of UGAAGACAUGAGGAUCACCCAUGUGGGAAUAUGGGAGGAUAUACAAAGACGAGAGUCAGAGUAGAAGGCCUAGGAU [salish99-ss1-96] , please.
Output: 0.154

Task: Tell me the measured apparent KD of MS2 coat protein of AAGAAACAUGAGGAUCACCCAUGUCAAGAGAGACAAGGAUAUCUGAAUUAAUUAAAUUAAGGAGAAGGUGUGAAAA [71%, Same state of confusion2, 1] , please.
Output: 0.253

Task: Looking for the measured apparent KD of MS2 coat protein of CUAAUUGCAUAUUAGGAUAUACACUGGGUGACAUGAGGAUCACCCAUGUAAAAGCACACUCGGUAGUAGAAGGAGUGUGCAAGUC [Iserso] , can you help?
Output: 0.0191

----------
Kindly state apparent KD of MS2 coat protein for each of the entries shown.
# Test system: MS2 coat protein
# Test method notes: apparent KD of MS2 coat protein, switch ON state; designed switch direction (-1 OFF switch, 1 ON switch): 1; higher = weaker reporter binding
# Assay conditions: FMN input: 0 or 200 uM; Eterna round: R93 (includes R88 designs)
Respond numerically; units are nM and should not be typed.

Task: // map AAGCAACAUGAGGAUCACCCAUGUAGCAGGGUCAGAGGAUAUUUGAUCUUGGCAAGGGUUAAAGAAGGUUGAUAAA [Rianqu] to recorded apparent KD of MS2 coat protein (system: MS2 coat protein)
Output: 264

Task: API: value(readout= apparent KD of MS2 coat protein, system= MS2 coat protein, query= GUAUAUAUGAGGUAGGAUAUCCAAAAUAAAACAUGAGGAUCACCCAUGUAAAUAAAUAAUAAAUGGGAGAAGGACCACAUAUAUAC [Ex6 sub 3] )
Output: 16.2

Task: API: value(readout= apparent KD of MS2 coat protein, system= MS2 coat protein, query= AAAUAAAUGACUAAGGAUAUAUCGAAGAAGACAUGAGGAUCACCCAUGUAAUAAUAAAAAGGGUGGUAGAAGGUAGUCAACAAAC [Mod 6 of Pariah 4 by Hyphema in Round 1] )
Output: 156

Task: Provide value of apparent KD of MS2 coat protein for this record tested with MS2 coat protein: CGGAGACAUGAGGAUCACCCAUGUGAGAAGAGGCGAGGAUAUCGAAAGAAAGAAGAGAAACGAGAAGGCGCGAGGG [salish99-SS1-075]
Output: 18.3

Task: Query the reported apparent KD of MS2 coat protein for MS2 coat protein; item: AAAUAACAUGAGGAUCACCCAUGUUACAACAUUACAGGAUAUGUGGGUGAAAAUAGCAUGACAGAAGGGUACUGUA [SameState1 Malc#34]
Output: 479

Task: Please state recorded apparent KD of MS2 coat protein (tested on MS2 coat protein) of AAAAAACAUGAGGAUCACCCAUGUAUGAUAACAUCAGGAUAUUGGCUUGACUAUGUCUUACAAGAAGGGAUGAAAA [Same State 1.3e (Same State 1 - Omei 2 )]
Output: 28.3

Task: Give apparent KD of MS2 coat protein (MS2 coat protein) of the following sequence: CGUCUACAUGAGGAUCACCCAUGUCAAGAGUGGUCAGGAUAUGGUAUUAGAUGAGUAUGGCCAGAAGGGACAUAAG [JR_SS001_Sub715]
Output: 167

Task: Form: Entry = AAAAUACAUGAGGAUCACCCAUGUGAAAAUAUGGGAGGAUAUACAAACACGAAAGUGAAAGUAGAAGGCCUAAAAA [SS! MT 15] | System = MS2 coat protein | apparent KD of MS2 coat protein = ____
Output: 51.6

Task: # get_value(readout= apparent KD of MS2 coat protein, system= MS2 coat protein) for AGGAGACAUGAGGAUCACCCAUGUGAGAAGAGGCGAGGAUAUCGAAAGAAAGAAGAGAAACGAGAAGGCGCGAGGU [salish99-SS1-023]
Output: 23.6

Task: Reported apparent KD of MS2 coat protein for MS2 coat protein, given GUGGACAUAGUUCAGGAUAUAUGAAUAGUCACAUGAGGAUCACCCAUGUCCAUUUAUAUGGGCACAUAGAAGGGAGGUAGUUAAC [Mat - Same state - Malcolm Mod - D124] ?
Output: 451

Task: # get_value(readout= apparent KD of MS2 coat protein, system= MS2 coat protein) for GGUACAUCUAGUUAGGAUAUCAGAUGUAAGACAUGAGGAUCACCCAUGUCCUAAGAAUAGGUAACUGAGAAGGAACAGGGAGUCC [JR_SS002_Sub417]
Output: 36.5

Task: What apparent KD of MS2 coat protein appears in the records for this sequence with MS2 coat protein? AGAAAUAAAAGAGAGGAUAUCCAAAAGAAAACAUGAGGAUCACCCAUGUACACGAAAGUGAAAUGGGAGAAGGCUCAAAAUAAAG [80% More Helter Skelter 2 + Hairpin]
Output: 121
